Target: StrH (exo-beta-D-N-acetylglucosaminidase) (Streptococcus pneumoniae, UniProt P49610)
Sequence (P49610 626-1064): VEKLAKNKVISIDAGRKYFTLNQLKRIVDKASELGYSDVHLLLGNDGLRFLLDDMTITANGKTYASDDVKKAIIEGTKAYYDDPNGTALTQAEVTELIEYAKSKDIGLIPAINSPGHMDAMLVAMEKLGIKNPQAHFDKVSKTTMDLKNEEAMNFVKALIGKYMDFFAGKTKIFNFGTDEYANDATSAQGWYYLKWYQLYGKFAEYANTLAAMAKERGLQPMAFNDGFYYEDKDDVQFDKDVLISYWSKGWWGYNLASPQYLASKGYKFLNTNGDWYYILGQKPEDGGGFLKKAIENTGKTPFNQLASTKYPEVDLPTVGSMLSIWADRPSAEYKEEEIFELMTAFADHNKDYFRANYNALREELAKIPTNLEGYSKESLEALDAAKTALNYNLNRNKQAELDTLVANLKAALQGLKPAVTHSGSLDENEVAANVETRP
observation_type: pKd
Expect pKd as a plain number equal to -log10 of the molar concentration.

The reported pKd value, StrH (exo-beta-D-N-acetylglucosaminidase) (Streptococcus pneumoniae, UniProt P49610), for O=C1c2ccccc2-n2c1nc1ccccc1c2=O [Tryptanthrin, Indolo(2,1-b)quinazoline-6,12-dione] reads 5.15

---

Target: SP_2141 (beta-Hexosaminidase) (Streptococcus pneumoniae)
Construct: recombinant from PRSP F3983 genomic DNA, pET-28a (+) with N-terminal 6 × His tag
Sequence (A0A0H2US73 entry or part of it): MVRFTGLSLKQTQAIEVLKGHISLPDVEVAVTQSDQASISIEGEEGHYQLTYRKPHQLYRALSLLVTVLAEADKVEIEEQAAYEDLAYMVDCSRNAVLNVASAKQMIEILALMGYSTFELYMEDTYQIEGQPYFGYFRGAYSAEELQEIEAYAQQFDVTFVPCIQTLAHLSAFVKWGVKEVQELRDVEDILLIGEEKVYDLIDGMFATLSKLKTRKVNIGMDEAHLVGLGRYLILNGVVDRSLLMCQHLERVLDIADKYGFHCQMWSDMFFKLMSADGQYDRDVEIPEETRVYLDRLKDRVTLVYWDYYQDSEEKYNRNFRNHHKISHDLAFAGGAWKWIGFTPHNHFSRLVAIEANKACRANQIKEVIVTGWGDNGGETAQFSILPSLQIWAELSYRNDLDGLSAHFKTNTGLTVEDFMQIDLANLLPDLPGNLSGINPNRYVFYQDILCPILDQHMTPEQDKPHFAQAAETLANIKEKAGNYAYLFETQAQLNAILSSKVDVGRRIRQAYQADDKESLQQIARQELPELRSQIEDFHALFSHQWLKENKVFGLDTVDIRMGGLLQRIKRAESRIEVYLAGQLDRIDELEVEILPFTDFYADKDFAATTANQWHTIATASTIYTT
Assay: SPR (Biacore 8K, CM5 chip, immobilized protein, steady-state affinity)
observation_type: pKd
Expect pKd as a plain number equal to -log10 of the molar concentration.

Sure, the documented pKd for O=C1c2ccccc2-n2c1nc1ccccc1c2=O [Tryptanthrin, Indolo(2,1-b)quinazoline-6,12-dione] is 5.19
